Hello, the source for this data is ChEMBL document CHEMBL1133132, in case you need it.

Molecular target: Integrin alpha-4/beta-7 (Homo sapiens, UniProt P13612+P26010)
Sequence (P13612 whole entry): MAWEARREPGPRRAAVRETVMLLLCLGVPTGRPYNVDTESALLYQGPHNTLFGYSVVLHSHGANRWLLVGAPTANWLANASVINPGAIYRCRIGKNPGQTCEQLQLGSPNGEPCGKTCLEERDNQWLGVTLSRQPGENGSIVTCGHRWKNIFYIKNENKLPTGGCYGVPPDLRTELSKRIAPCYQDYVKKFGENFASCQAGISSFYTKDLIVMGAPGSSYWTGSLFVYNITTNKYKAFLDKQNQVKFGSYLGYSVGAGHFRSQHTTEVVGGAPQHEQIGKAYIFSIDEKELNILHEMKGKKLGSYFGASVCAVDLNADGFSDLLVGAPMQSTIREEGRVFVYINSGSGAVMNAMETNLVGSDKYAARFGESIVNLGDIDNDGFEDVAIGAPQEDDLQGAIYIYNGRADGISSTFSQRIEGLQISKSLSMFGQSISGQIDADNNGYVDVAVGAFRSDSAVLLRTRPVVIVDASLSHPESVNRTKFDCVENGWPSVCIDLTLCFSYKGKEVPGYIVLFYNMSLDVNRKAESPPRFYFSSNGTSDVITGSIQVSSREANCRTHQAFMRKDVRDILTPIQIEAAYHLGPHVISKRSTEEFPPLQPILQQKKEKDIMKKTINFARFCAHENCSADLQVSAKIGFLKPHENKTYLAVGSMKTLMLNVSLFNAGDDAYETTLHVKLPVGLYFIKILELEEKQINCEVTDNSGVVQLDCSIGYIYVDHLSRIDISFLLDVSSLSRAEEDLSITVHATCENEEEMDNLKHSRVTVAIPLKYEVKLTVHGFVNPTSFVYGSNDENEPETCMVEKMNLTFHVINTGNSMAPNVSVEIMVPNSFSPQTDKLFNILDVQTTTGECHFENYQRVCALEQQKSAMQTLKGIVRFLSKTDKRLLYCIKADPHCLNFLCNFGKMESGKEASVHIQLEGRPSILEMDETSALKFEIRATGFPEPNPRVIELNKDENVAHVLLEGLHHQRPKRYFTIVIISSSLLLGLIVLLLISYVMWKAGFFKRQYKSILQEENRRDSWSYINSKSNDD
Sequence (P26010 whole entry): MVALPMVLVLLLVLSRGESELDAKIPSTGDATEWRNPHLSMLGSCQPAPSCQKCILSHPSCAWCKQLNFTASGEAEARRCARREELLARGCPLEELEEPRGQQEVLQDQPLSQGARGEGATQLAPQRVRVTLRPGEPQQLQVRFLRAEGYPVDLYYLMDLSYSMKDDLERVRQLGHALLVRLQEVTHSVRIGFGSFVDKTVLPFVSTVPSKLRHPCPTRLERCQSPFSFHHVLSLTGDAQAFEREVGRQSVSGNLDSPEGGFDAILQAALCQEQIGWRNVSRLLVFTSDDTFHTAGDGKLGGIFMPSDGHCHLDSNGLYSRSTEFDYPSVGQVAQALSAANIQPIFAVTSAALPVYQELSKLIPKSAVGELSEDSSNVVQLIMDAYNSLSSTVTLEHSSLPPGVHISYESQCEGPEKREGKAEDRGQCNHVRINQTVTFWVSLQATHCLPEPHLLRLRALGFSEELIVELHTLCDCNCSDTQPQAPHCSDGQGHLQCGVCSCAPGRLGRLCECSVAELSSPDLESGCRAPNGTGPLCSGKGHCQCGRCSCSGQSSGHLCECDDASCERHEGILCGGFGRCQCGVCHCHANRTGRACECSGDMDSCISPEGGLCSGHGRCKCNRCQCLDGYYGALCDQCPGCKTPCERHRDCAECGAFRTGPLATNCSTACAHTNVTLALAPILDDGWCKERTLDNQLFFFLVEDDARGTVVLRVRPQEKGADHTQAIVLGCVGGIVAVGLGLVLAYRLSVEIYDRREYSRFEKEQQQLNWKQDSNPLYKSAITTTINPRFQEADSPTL
Assay: Inhibition of alpha-4 beta7/MAdCAM mediated cell adhesion was evaluated using B-cell lymphoma RPMI 8866 cells
Type: functional, cell-based
In this section we review reported IC50 values for a set of molecules.
Value expressed in µM; do not type the unit.

Observe how each entry below is paired with its result.
CC(C)(C)OC(=O)[C@H](Cc1ccccc1)NCc1cccc(O)c1	54
COc1cccc(CN[C@@H](Cc2ccccc2)C(=O)OC(C)(C)C)c1	122
CC(C)(C)OC(=O)[C@H](Cc1ccccc1)NCc1ccc(O)cc1	85
CC(C)(C)OC(=O)[C@H](Cc1ccccc1)NCc1ccccc1F	117
COc1ccccc1CN[C@@H](Cc1ccccc1)C(=O)OC(C)(C)C	50
CC(C)(C)OC(=O)[C@H](Cc1ccccc1)NCc1ccc(F)cc1	121
CC(C)(C)OC(=O)[C@H](Cc1ccccc1)NCc1cc([N+](=O)[O-])ccc1O	30
CC(C)(C)OC(=O)[C@H](Cc1ccccc1)NCc1cccc(F)c1	176
CC(C)CCOC(=O)[C@H](Cc1ccccc1)NCc1cc([N+](=O)[O-])ccc1O	7
C=C(C)CCOC(=O)[C@H](Cc1ccccc1)NCc1cc([N+](=O)[O-])ccc1O	82

Find the measured IC50: item "COc1ccc(CN[C@@H](Cc2ccccc2)C(=O)OC(C)(C)C)cc1" , target or system Integrin alpha-4/beta-7 (Homo sapiens, UniProt P13612+P26010).
122

Find the measured IC50: item "CC(C)CCNC(=O)[C@H](Cc1ccccc1)NCc1cc([N+](=O)[O-])ccc1O" , target or system Integrin alpha-4/beta-7 (Homo sapiens, UniProt P13612+P26010).
6

Find the measured IC50: item "O=C(OCc1ccccc1)[C@H](Cc1ccccc1)NCc1cc([N+](=O)[O-])ccc1O" , target or system Integrin alpha-4/beta-7 (Homo sapiens, UniProt P13612+P26010).
7

Find the measured IC50: item "CC(C)(C)COC(=O)[C@H](Cc1ccccc1)NCc1cc([N+](=O)[O-])ccc1O" , target or system Integrin alpha-4/beta-7 (Homo sapiens, UniProt P13612+P26010).
9

Find the measured IC50: item "CC(C)(C)OC(=O)[C@H](Cc1ccccc1)NCc1ccccc1O" , target or system Integrin alpha-4/beta-7 (Homo sapiens, UniProt P13612+P26010).
60

Find the measured IC50: item "CC(C)(C)OC(=O)[C@H](Cc1ccccc1)NCc1ccccc1" , target or system Integrin alpha-4/beta-7 (Homo sapiens, UniProt P13612+P26010).
100
